# measured-on: T1, Human EphA2 (Ecto) (Human, UniProt P29317 24-537)
# T1 construct: extracellular domain
# assay-protocol: FP competition, tracer Compound 66
Starred links: 1 amine or outer side, 2 acyl side, 3 side chain; linkers in the order of their positions; H or OH if unused. Positions of bridges follow the written chain, without caps; N, C: chain ends. Non-standard residues stand in square brackets, D forms with d. No end group written: not given here. TBMB = c1c(C[*:1])cc(C[*:3])cc1C[*:2]; Sar = CNCC(=O)O
quantity-name: Ki (nM)

[[record]]
binder = "[Sar][Sar]ACPWGPFWCPV[dA]RPGC (linker 4-11-18 via TBMB) [Bicycle Compound 102]"
quantity_name = "Ki"
result = 312

[[record]]
binder = "[Sar][Sar]ACPWGPAWCPVNRPGC (linker 4-11-18 via TBMB) [Bicycle Compound 83]"
quantity_name = "Ki"
result = 288

[[record]]
binder = "[Sar][Sar]ACPWGPFWCPANRPGC (linker 4-11-18 via TBMB) [Bicycle Compound 292]"
quantity_name = "Ki"
result = 954

[[record]]
binder = "[Sar][Sar]ACPWGPFWCPVNRAGC (linker 4-11-18 via TBMB) [Bicycle Compound 104]"
quantity_name = "Ki"
result = 194

[[record]]
binder = "[Sar][Sar]ACPWGAFWCPVNRPGC (linker 4-11-18 via TBMB) [Bicycle Compound 289]"
quantity_name = "Ki"
result = 1100

[[record]]
binder = "[Sar][Sar]ACPW[dA]PFWCPVNRPGC (linker 4-11-18 via TBMB) [Bicycle Compound 296]"
quantity_name = "Ki"
result = 1000

[[record]]
binder = "[Sar][Sar]ACPWGPFWCPVNRP[dA]C (linker 4-11-18 via TBMB) [Bicycle Compound 112]"
quantity_name = "Ki"
result = 110

[[record]]
binder = "[Sar][Sar]ACPWG[dA]FWCPVNRPGC (linker 4-11-18 via TBMB) [Bicycle Compound 297]"
quantity_name = "Ki"
result = 1500

